testDetails: self-splicing fitness, log relative to wild type (ln ratio); higher = more splicing; Tetrahymena group I intron in knt gene, E. coli kanamycin selection, DiMSum; sequences stand for … in CUCUCU…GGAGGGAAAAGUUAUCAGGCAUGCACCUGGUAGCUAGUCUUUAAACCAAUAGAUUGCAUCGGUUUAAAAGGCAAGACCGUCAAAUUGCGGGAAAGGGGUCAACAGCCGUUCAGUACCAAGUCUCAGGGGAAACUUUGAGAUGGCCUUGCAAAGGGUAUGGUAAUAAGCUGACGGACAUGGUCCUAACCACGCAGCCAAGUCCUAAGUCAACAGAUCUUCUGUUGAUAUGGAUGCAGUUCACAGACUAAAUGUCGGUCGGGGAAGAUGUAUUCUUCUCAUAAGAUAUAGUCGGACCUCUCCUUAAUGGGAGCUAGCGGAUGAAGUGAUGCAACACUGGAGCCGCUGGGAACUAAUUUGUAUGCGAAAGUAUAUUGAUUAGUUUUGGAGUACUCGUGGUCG;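 note: selection with 25 µg/mL kanamycin versus none on LB agar overnight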
conditionLabel: 30 °C
So I've got a bunch of sequences here, and I need their self-splicing fitness (ln) values.
Hey, just send me the number, nothing else.

## Input Any idea what its self-splicing fitness (ln) is? The sequence is "AAACAGCAAUAUUACGGUGU"
## Output -2.42

## Input Any idea what its self-splicing fitness (ln) is? The sequence is "AGGUAGCAAUAUUACGAGUG"
## Output -2.87

## Input Any idea what its self-splicing fitness (ln) is? The sequence is "UUGAAGCAAUAUUACGCUGA"
## Output -1.61

## Input Any idea what its self-splicing fitness (ln) is? The sequence is "UGGAAGCAAUAUUACGAUUC"
## Output -3.18

## Input Any idea what its self-splicing fitness (ln) is? The sequence is "GCCCAGCAAUAUUACGUUAG"
## Output -3.81

## Input Any idea what its self-splicing fitness (ln) is? The sequence is "GUUCAGCAAUAUUACGGAAA"
## Output -0.778

## Input Any idea what its self-splicing fitness (ln) is? The sequence is "AACAAGCAAUAUUACGAGCC"
## Output -3.25

## Input Any idea what its self-splicing fitness (ln) is? The sequence is "AGUGAGCAAUAUUACGAUUC"
## Output -2.97

## Input Any idea what its self-splicing fitness (ln) is? The sequence is "UUAGAGCAAUAUUACGCGGA"
## Output -1.29

## Input Any idea what its self-splicing fitness (ln) is? The sequence is "UAGAAGCAAUAUUACGACAA"
## Output -0.512

## Input Any idea what its self-splicing fitness (ln) is? The sequence is "GUUUAGCAAUAUUACGGACC"
## Output -2.41

## Input Any idea what its self-splicing fitness (ln) is? The sequence is "UGGCAGCAAUAUUACGCUUA"
## Output -0.68

## Input Any idea what its self-splicing fitness (ln) is? The sequence is "ACGGAGCAAUAUUACGUGCG"
## Output -2.63

## Input Any idea what its self-splicing fitness (ln) is? The sequence is "GAUGAGCAAUAUUACGACGA"
## Output -1.5

## Input Any idea what its self-splicing fitness (ln) is? The sequence is "UUUGAGCAAUAUUACGAUGG"
## Output -2.08

## Input Any idea what its self-splicing fitness (ln) is? The sequence is "GAAGAGCAAUAUUACGACUG"
## Output -3.86

Data origin, for the record: the supplement of paper PMC7877785
